Target: human D4 receptor (Homo sapiens (Human), UniProt P21917)
Sequence (P21917 whole entry): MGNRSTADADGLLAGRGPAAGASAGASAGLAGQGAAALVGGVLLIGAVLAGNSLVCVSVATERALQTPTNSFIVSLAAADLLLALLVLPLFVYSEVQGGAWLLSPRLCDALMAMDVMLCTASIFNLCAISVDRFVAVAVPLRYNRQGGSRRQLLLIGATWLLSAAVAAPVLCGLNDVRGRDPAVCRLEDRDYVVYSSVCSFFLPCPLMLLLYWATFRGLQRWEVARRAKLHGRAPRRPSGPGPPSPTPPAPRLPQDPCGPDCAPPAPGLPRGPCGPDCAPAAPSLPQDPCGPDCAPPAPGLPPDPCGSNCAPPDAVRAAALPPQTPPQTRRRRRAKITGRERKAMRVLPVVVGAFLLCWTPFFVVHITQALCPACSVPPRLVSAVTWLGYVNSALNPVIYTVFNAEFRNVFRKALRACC
Protocol description: Test 2: binding activity to human D4 receptor ([3H] dopamine, CHO cell membrane)
Cond: [3H] dopamine; read-out: D4 binding affinity (Ki value)
Quantity measured: Ki (nM)

Example results:
| Compound | Ki, nM |
| --- | --- |
| Cc1cccc(C2CCN(CCNC(=O)C3CCC(F)(F)CC3)CC2)n1 [Example 4] | 26 |
| O=C(NCCN1CCC(c2cccc(F)n2)CC1)C1CCOCC1 [Example 32] | 96 |
| Cc1cccc(C2CCN(CCNC(=O)C3CCOCC3)CC2)n1 [Example 8] | 111 |

P. O=C(NCCN1CCC(c2cccc(C(F)(F)F)n2)CC1)C1CCOC1 (stereo not drawn) [Example 23]
Q. O=C(NCCN1CCC(c2cccc(C(F)(F)F)n2)CC1)[C@H]1C[C@@H]2CC[C@H]1O2 [Example 21]
R. CNc1cccc(C2CCN(CCNC(=O)C3CCOCC3)CC2)n1 [Example 37]
S. CO[C@H]1CC[C@H](C(=O)NCCN2CCC(c3cccc(C)n3)CC2)CC1 [Example 26]
Req: Put the compounds in ascending order of Ki. Enter labels, ranked according to the request.
Resp: R, Q, P, S
